- System: BM4-5 human liver cells
- ASSAY_SUMMARY: CellTiter-Blue cell viability assay
- Type: cell-based
- APPLIED_CONDITIONS: BM4-5 FEO cells, 48 h, read-out: LC50 ± SD
MEASUREMENT_TYPE: CC50

Supply recorded CC50 for O=C(Nc1ccccc1Br)NC(Cc1c[nH]c2ccccc12)C(=O)NCCCNC1CCC(O)CC1 (stereo not shown) [Compound 19] here. > 100 µM

Identify CC50 associated with the compound O=C(Nc1cccc(Br)c1)N[C@@H](Cc1c[nH]c2ccccc12)C(=O)NCCCN1CCCCC1 [Compound 21] 29.5 µM

Find the measured CC50 of COc1ccc(OC)c(NC(=O)NC(Cc2c[nH]c3ccccc23)C(=O)NCCCN2CCCCC2C)c1 (stereo not shown) [Compound 9] and report it. > 100 µM

Give the value of CC50 reported for the following: CC(C)c1ccc(NC(=O)N[C@@H](Cc2c[nH]c3ccccc23)C(=O)NCCCN2CCCCC2)cc1 [Compound 22] 47 µM

Given COc1ccc2[nH]cc(CC(NC(=O)Nc3cc(Cl)ccc3Cl)C(=O)NCCCN3CCCCC3C)c2c1 (stereo not shown) [Compound 10] , respond with its CC50. > 100 µM

Retrieve CC50 measured for CC1CCCCN1CCCNC(=O)C(Cc1c[nH]c2ccccc12)NC(=O)Nc1ccc(N(C)C)cc1 (stereo not shown) [Compound 6] and print it. > 100 µM

Give a short answer stating reported CC50 for CC(=O)c1cccc(NC(=O)NC(Cc2c[nH]c3ccccc23)C(=O)NCCCN2CCCCC2C)c1 (stereo not shown) [Compound 8] . > 100 µM

###

Can you tell me IC50 for the items I'm about to list?
- MEASURED_TARGET: recombinant HCV NS3/4A GT1b WT (Hepatitis C virus genotype 1b, UniProt Q9WMX2)
- Construct: recombinant HCV NS3/4A GT1b WT
- Sequence (Q9WMX2 1658-1711): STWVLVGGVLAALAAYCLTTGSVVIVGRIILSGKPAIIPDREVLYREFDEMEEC
- Sequence (Q9WMX2 1027-1657): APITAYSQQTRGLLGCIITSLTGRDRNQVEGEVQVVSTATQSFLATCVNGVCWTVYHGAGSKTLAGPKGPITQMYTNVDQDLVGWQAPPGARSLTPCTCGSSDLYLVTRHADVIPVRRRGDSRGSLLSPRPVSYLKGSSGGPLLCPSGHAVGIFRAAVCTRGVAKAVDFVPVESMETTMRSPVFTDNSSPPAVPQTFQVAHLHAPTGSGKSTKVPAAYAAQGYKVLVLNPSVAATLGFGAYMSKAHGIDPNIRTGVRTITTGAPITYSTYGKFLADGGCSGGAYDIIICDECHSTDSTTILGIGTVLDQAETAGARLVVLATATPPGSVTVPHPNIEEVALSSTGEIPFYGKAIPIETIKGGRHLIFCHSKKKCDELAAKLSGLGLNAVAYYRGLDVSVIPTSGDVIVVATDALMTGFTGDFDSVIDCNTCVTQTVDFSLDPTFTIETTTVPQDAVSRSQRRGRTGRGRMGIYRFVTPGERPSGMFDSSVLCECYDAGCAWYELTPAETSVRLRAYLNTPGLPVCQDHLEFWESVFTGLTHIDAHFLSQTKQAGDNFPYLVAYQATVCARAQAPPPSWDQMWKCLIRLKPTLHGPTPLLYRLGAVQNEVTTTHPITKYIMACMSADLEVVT
- ASSAY_SUMMARY: biochemical
- Type: biochemical
Write the answer as a number in µM, unit excluded.

State, in one line, measured IC50 of CC(C)c1ccc(NC(=O)NC(Cc2c[nH]c3ccccc23)C(=O)NCCCN2CCCC[C@@H]2C)cc1 (some centres unmarked) [Compound 12] 13.1

Give IC50 for the following molecule: C[C@H]1CCCCN1CCCNC(=O)C(Cc1c[nH]c2ccccc12)NC(=O)Nc1cccc(Br)c1 (some centres unmarked) [Compound 1] 14.7

meta.source: patent US11919880B2
